- assay: Plasma pharmacokinetics with loading dose and weekly or twice weekly maintenance dosing, fed (Example 5)
- Format: in vivo, human
- setup conditions: human, plasma, oral, 150 mg, Panel IV (150 mg BID Days 1-2, then 150 mg Q3D/Q4D; SF2a/b, fed), Day 27; read-out: Mean Cmax (SD)
measurement type: Cmax (ng/mL)
Respond with the bare value in ng/mL.

get_value(item= COc1cc(NC(C(=O)c2c[nH]c3ccc(OC(F)(F)F)cc23)c2ccc(Cl)cc2OC)cc(S(C)(=O)=O)c1 (stereo not shown) , readout=Cmax) returns 1380

* * *

- assay: Effect of food on plasma pharmacokinetics after single oral dose of SF2a/b (Example 2)
- Format: in vivo, human
- setup conditions: both sexes, human, plasma, oral, 800 mg, Treatment E: single 800 mg (SF2b), fed, standardized breakfast; read-out: AUC∞, Geo. Mean
measurement type: AUC(0-inf) (µg·h/mL)
Supply the numeric figure in µg·h/mL, leaving out any unit text.

AUC(0-inf) reported for this compound COc1cc(NC(C(=O)c2c[nH]c3ccc(OC(F)(F)F)cc23)c2ccc(Cl)cc2OC)cc(S(C)(=O)=O)c1 (stereo not shown) [Compound (a)] : 337
